Target or system: T1, Insulin receptor prepared according to Bass et al., 1996: soluble human insulin receptor-immunoglobulin heavy … (human, UniProt P06213 28-956)
T1 construct: extracellular domain; Eu3+-labelled in TR-FRET; also called IR; sIR-Fc; not shown: immunoglobulin heavy chain constant domains that replace the transmembrane and i
Test name: phage ELISA vs milk
Endpoint: Ratio over Background (fold)
Value expressed in fold; do not type the unit.

Query string: Find the measured Ratio over Background of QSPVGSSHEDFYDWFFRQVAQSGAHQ [N2CA-3-D6-IGFR] and report it.
Result string: 2.2

Query string: Find the measured Ratio over Background of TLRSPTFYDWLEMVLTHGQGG [20E22-1-A8-IGFR] and report it.
Result string: 0.9

Query string: Find the measured Ratio over Background of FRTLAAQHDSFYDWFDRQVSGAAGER [H2CA-3-C11-IGFR] and report it.
Result string: 1.6

Query string: Find the measured Ratio over Background of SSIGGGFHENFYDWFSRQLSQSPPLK [N2CA-4-F7-IGFR] and report it.
Result string: 0.8
